B1: glmS ribozyme (parent)
chain: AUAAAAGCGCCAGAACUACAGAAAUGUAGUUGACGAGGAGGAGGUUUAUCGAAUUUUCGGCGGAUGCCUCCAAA

variants of: B1; assay: self-cleavage kobs at 160 uM GlcN6P; higher = faster cleavage; RNA array; settings: with glucosamine-6-phosphate
Variants at the floor of the assay were thinned out.
Kindly state self-cleavage kobs at 160 uM GlcN6P for each of the entries shown.

Need self-cleavage kobs at 160 uM GlcN6P of A6U A15C U55A G66U , thanks. < 1e-05 s⁻¹

Need self-cleavage kobs at 160 uM GlcN6P of G35A C71U , thanks. < 1e-05 s⁻¹

Need self-cleavage kobs at 160 uM GlcN6P of G43C U46G , thanks. < 1e-05 s⁻¹

Need self-cleavage kobs at 160 uM GlcN6P of U49G G63U , thanks. < 1e-05 s⁻¹

Need self-cleavage kobs at 160 uM GlcN6P of A42U C61U , thanks. < 1e-05 s⁻¹

Need self-cleavage kobs at 160 uM GlcN6P of C11G A39U , thanks. < 1e-05 s⁻¹

Need self-cleavage kobs at 160 uM GlcN6P of A48U G62U , thanks. < 1e-05 s⁻¹

Need self-cleavage kobs at 160 uM GlcN6P of G40U G63U , thanks. < 1e-05 s⁻¹

Need self-cleavage kobs at 160 uM GlcN6P of A36G A39G , thanks. < 1e-05 s⁻¹

Need self-cleavage kobs at 160 uM GlcN6P of U57G C58U , thanks. < 1e-05 s⁻¹

Need self-cleavage kobs at 160 uM GlcN6P of C10G G40C , thanks. < 1e-05 s⁻¹

Need self-cleavage kobs at 160 uM GlcN6P of C8U U47C G62U , thanks. < 1e-05 s⁻¹

Need self-cleavage kobs at 160 uM GlcN6P of A15U G38C C71A , thanks. < 1e-05 s⁻¹

Need self-cleavage kobs at 160 uM GlcN6P of G7A G37C U47A , thanks. < 1e-05 s⁻¹

Need self-cleavage kobs at 160 uM GlcN6P of G9U G37C , thanks. < 1e-05 s⁻¹

Need self-cleavage kobs at 160 uM GlcN6P of G35C U56G , thanks. < 1e-05 s⁻¹

Need self-cleavage kobs at 160 uM GlcN6P of G51A U69G , thanks. 4.53e-05 s⁻¹

Need self-cleavage kobs at 160 uM GlcN6P of U45C A53G , thanks. 0.000134 s⁻¹

Need self-cleavage kobs at 160 uM GlcN6P of G41U U55C , thanks. 3.13e-05 s⁻¹

Need self-cleavage kobs at 160 uM GlcN6P of G44A U56A C70U , thanks. < 1e-05 s⁻¹

Need self-cleavage kobs at 160 uM GlcN6P of G29C A33C C61G C68U , thanks. < 1e-05 s⁻¹

Need self-cleavage kobs at 160 uM GlcN6P of C10G G13A , thanks. < 1e-05 s⁻¹

Need self-cleavage kobs at 160 uM GlcN6P of C10U C11G A14G G43C A53C , thanks. < 1e-05 s⁻¹

Need self-cleavage kobs at 160 uM GlcN6P of G41A A53U , thanks. 0.00012 s⁻¹

Need self-cleavage kobs at 160 uM GlcN6P of C16G G51U U56C C70U , thanks. < 1e-05 s⁻¹

Need self-cleavage kobs at 160 uM GlcN6P of U54A G66A , thanks. 0.00093 s⁻¹

Need self-cleavage kobs at 160 uM GlcN6P of A53U U56C C71U , thanks. 4.8e-05 s⁻¹

Need self-cleavage kobs at 160 uM GlcN6P of U47A C58A , thanks. 2.53e-05 s⁻¹

Need self-cleavage kobs at 160 uM GlcN6P of G9A C58G , thanks. < 1e-05 s⁻¹

Need self-cleavage kobs at 160 uM GlcN6P of C11U G60C , thanks. < 1e-05 s⁻¹

Need self-cleavage kobs at 160 uM GlcN6P of G29U G35U G38U A52G , thanks. < 1e-05 s⁻¹

Need self-cleavage kobs at 160 uM GlcN6P of G32C A36U C50A C70G , thanks. 0.0002 s⁻¹

Need self-cleavage kobs at 160 uM GlcN6P of A14G G41C , thanks. 4.38e-05 s⁻¹

Need self-cleavage kobs at 160 uM GlcN6P of C58A C70A , thanks. 3.09e-05 s⁻¹

Need self-cleavage kobs at 160 uM GlcN6P of C16A C34U C71U , thanks. < 1e-05 s⁻¹

Need self-cleavage kobs at 160 uM GlcN6P of G13U A14U C58A C67U , thanks. 5.09e-05 s⁻¹

Need self-cleavage kobs at 160 uM GlcN6P of G13U U54A , thanks. 0.000103 s⁻¹

Need self-cleavage kobs at 160 uM GlcN6P of G29A U56A , thanks. 0.000108 s⁻¹

Need self-cleavage kobs at 160 uM GlcN6P of G9A A36G A64C , thanks. < 1e-05 s⁻¹

Need self-cleavage kobs at 160 uM GlcN6P of U45G U56G , thanks. 0.000245 s⁻¹

Need self-cleavage kobs at 160 uM GlcN6P of U30G A53C , thanks. 0.000159 s⁻¹

Need self-cleavage kobs at 160 uM GlcN6P of A12U A42G , thanks. 0.00676 s⁻¹

Need self-cleavage kobs at 160 uM GlcN6P of A6U C10G A36C , thanks. < 1e-05 s⁻¹

Need self-cleavage kobs at 160 uM GlcN6P of C50G U54A U65A , thanks. 0.00014 s⁻¹

Need self-cleavage kobs at 160 uM GlcN6P of C8A G38C , thanks. < 1e-05 s⁻¹

Need self-cleavage kobs at 160 uM GlcN6P of A33U G43A , thanks. < 1e-05 s⁻¹

Need self-cleavage kobs at 160 uM GlcN6P of U31G C71A , thanks. 0.000505 s⁻¹

Need self-cleavage kobs at 160 uM GlcN6P of A52C A53G G62C , thanks. < 1e-05 s⁻¹

Need self-cleavage kobs at 160 uM GlcN6P of G43A C68U , thanks. 0.00432 s⁻¹

Need self-cleavage kobs at 160 uM GlcN6P of G51U U56C , thanks. < 1e-05 s⁻¹

Need self-cleavage kobs at 160 uM GlcN6P of A6G A36G G44U C61U , thanks. < 1e-05 s⁻¹

Need self-cleavage kobs at 160 uM GlcN6P of G41C G51C A64C , thanks. < 1e-05 s⁻¹

Need self-cleavage kobs at 160 uM GlcN6P of A52C U65C , thanks. < 1e-05 s⁻¹

Need self-cleavage kobs at 160 uM GlcN6P of G7C G41C , thanks. < 1e-05 s⁻¹

Need self-cleavage kobs at 160 uM GlcN6P of G66C C70G , thanks. 3.35e-05 s⁻¹

Need self-cleavage kobs at 160 uM GlcN6P of G9C G41C , thanks. < 1e-05 s⁻¹

Need self-cleavage kobs at 160 uM GlcN6P of G59C , thanks. < 1e-05 s⁻¹

Need self-cleavage kobs at 160 uM GlcN6P of U45G A53U , thanks. 0.000306 s⁻¹

Need self-cleavage kobs at 160 uM GlcN6P of A6G G40C C50G , thanks. < 1e-05 s⁻¹

Need self-cleavage kobs at 160 uM GlcN6P of U46G U65A , thanks. 0.000198 s⁻¹

Need self-cleavage kobs at 160 uM GlcN6P of A14U G41C C70G , thanks. 0.00172 s⁻¹

Need self-cleavage kobs at 160 uM GlcN6P of A6G C10U U57C , thanks. < 1e-05 s⁻¹

Need self-cleavage kobs at 160 uM GlcN6P of A15U A48U , thanks. < 1e-05 s⁻¹

Need self-cleavage kobs at 160 uM GlcN6P of A15C C68U , thanks. 6.98e-05 s⁻¹

Need self-cleavage kobs at 160 uM GlcN6P of G40U C61G , thanks. < 1e-05 s⁻¹

Need self-cleavage kobs at 160 uM GlcN6P of C34A A64U , thanks. < 1e-05 s⁻¹

Need self-cleavage kobs at 160 uM GlcN6P of A39U C70U , thanks. 0.00158 s⁻¹

Need self-cleavage kobs at 160 uM GlcN6P of G13C A14G U55G G59U C68G , thanks. 0.000122 s⁻¹

Need self-cleavage kobs at 160 uM GlcN6P of G44A G66A , thanks. 4.37e-05 s⁻¹

Need self-cleavage kobs at 160 uM GlcN6P of U55A C68G , thanks. 6.64e-05 s⁻¹

Need self-cleavage kobs at 160 uM GlcN6P of C8A A14U , thanks. < 1e-05 s⁻¹

Need self-cleavage kobs at 160 uM GlcN6P of C11U A42U G43U A53G C68G , thanks. 0.0001 s⁻¹

Need self-cleavage kobs at 160 uM GlcN6P of G37U G41C , thanks. < 1e-05 s⁻¹

Need self-cleavage kobs at 160 uM GlcN6P of G7C G13U A42G , thanks. < 1e-05 s⁻¹

Need self-cleavage kobs at 160 uM GlcN6P of A53U C61U , thanks. < 1e-05 s⁻¹

Need self-cleavage kobs at 160 uM GlcN6P of C16U G37U C68G U69G , thanks. 4.65e-05 s⁻¹

Need self-cleavage kobs at 160 uM GlcN6P of A15U U55G , thanks. 0.000152 s⁻¹

Need self-cleavage kobs at 160 uM GlcN6P of G7A U56C C67U C68U , thanks. < 1e-05 s⁻¹

Need self-cleavage kobs at 160 uM GlcN6P of A48G G63A , thanks. < 1e-05 s⁻¹

Need self-cleavage kobs at 160 uM GlcN6P of C50A C67U C71G , thanks. 4.46e-05 s⁻¹

Need self-cleavage kobs at 160 uM GlcN6P of A6G A14U U31A U57G , thanks. < 1e-05 s⁻¹

Need self-cleavage kobs at 160 uM GlcN6P of U49C U57C G60A G63A , thanks. < 1e-05 s⁻¹

Need self-cleavage kobs at 160 uM GlcN6P of A15U G29A , thanks. 7.32e-05 s⁻¹

The origin of these recorded values is the supplement of paper PMC7125110.
